# Tested on: Botrytis cinerea
# PROTOCOL_DETAILS: Botrytis Test (Bean)/Protective
# Type: in vivo
# CONDITIONS: 48 h, protective, evaluated 2 days after inoculation, read-out: Efficacy in %
Hi there, I'd appreciate the recorded pest or weed control at 500 g/ha for every entry that follows.
One number for each entry, in %.

INSERT INTO measurements (compound, measured_target, unit_annotation, recorded_result) VALUES
  ('Cc1nc(C(F)(F)F)c(C(=O)Nc2ccc(F)cc2-c2ccc(Cl)c(C)c2)s1 [drawing 71]', 'Botrytis cinerea', '%', 100),
  ('Cc1nc(C(F)F)c(C(=O)Nc2ccc(F)cc2-c2ccc(Cl)c(C)c2)s1 [drawing 72]', 'Botrytis cinerea', '%', 100),
  ('Cc1nc(C(F)(F)F)c(C(=O)Nc2ccc(F)cc2-c2ccc(Cl)c(Cl)c2)s1 [drawing 67]', 'Botrytis cinerea', '%', 99);

Consider the following items and state reported pest or weed control at 500 g/ha for each.
1. Cc1nc(C(F)F)c(C(=O)Nc2c(F)cccc2-c2ccc(Cl)c(F)c2)s1 [drawing 69]
2. Cc1nc(C(F)F)c(C(=O)Nc2c(F)cccc2-c2ccc(Cl)c(Cl)c2)s1 [drawing 66]

## Output
1. 100
2. 100
